What autophosphorylation activity was measured for each of the following?
EXPERIMENTAL_TARGET: insulin receptor isoform B (IR-B) (Homo sapiens, UniProt P06213)
Sequence (P06213 28-758 limits assumed): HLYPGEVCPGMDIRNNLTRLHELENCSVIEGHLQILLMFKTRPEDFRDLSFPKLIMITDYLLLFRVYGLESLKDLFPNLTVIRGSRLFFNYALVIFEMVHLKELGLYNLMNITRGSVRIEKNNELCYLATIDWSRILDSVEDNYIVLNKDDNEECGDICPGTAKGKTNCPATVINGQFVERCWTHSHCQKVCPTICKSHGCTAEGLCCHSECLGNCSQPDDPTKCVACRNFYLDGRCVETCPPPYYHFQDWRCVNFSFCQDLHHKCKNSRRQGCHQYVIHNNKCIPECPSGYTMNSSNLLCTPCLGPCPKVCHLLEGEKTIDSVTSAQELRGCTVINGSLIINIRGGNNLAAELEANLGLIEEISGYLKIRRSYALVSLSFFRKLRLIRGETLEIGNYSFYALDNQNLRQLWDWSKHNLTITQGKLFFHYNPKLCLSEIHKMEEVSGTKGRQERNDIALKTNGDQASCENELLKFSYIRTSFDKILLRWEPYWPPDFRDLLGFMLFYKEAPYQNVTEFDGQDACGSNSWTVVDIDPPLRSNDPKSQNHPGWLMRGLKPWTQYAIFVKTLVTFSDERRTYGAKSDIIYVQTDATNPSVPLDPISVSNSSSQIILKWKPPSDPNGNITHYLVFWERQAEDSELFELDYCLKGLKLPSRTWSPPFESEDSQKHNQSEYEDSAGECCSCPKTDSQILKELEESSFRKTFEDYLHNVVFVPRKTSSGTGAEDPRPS
Sequence (P06213 763-1382 limits assumed): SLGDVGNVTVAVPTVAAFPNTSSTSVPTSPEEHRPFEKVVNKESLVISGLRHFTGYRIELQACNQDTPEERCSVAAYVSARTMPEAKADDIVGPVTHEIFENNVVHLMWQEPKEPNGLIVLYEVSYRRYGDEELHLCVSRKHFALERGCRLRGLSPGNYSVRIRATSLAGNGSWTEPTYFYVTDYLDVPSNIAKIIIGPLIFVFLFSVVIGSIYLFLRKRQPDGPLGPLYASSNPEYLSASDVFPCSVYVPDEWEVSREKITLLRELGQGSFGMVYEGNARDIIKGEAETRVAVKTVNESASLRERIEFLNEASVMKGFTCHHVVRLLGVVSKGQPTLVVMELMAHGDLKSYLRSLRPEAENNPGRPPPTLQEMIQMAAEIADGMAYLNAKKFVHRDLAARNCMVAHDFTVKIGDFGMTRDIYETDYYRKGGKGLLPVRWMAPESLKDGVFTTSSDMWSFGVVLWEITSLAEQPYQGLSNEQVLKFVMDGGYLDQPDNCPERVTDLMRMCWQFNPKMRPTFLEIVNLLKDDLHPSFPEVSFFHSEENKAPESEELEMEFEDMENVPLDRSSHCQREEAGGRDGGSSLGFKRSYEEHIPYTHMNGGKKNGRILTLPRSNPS
PROCEDURE_DETAILS: Insulin receptor autophosphorylation assay (In-Cell Western, CHO cells, Example 8B)
Format: cell-based
Set-up: expressed in transfected cells; host or cells: CHO cells
SETTINGS: relative to human insulin

Kindly state the measured autophosphorylation activity obtained for O=C(O)CCCCCCCCCCCCCCOc1ccc(S(=O)(=O)Nc2ncc(C(=O)CCCCCCC(=O)NCCOCCOCC(=O)NCCOCCOCC(=O)O)cn2)cc1 [Binder 6] with insulin receptor isoform B (IR-B) (Homo sapiens, UniProt P06213). 0.32

Kindly state the measured autophosphorylation activity obtained for O=C(O)CCCCCCCCCCCCCc1cccc(S(=O)(=O)Nc2ncc(C(=O)NCCOCCOCC(=O)NCCOCCOCC(=O)O)cn2)c1 [Binder 29] with insulin receptor isoform B (IR-B) (Homo sapiens, UniProt P06213). 0.01

Kindly state the measured autophosphorylation activity obtained for O=C(O)CCCCCCCCCc1ccc(CCOc2ccc(S(=O)(=O)Nc3ncc(C(=O)NCCOCCOCC(=O)NCCOCCOCC(=O)O)cn3)cc2)cc1 [Binder 10] with insulin receptor isoform B (IR-B) (Homo sapiens, UniProt P06213). 0.31

---

EXPERIMENTAL_TARGET: immobilized human serum albumin (Homo sapiens, UniProt P02768)
Construct: purchased Chiralpak (Chiraltech) 34712
Sequence (P02768 25-609): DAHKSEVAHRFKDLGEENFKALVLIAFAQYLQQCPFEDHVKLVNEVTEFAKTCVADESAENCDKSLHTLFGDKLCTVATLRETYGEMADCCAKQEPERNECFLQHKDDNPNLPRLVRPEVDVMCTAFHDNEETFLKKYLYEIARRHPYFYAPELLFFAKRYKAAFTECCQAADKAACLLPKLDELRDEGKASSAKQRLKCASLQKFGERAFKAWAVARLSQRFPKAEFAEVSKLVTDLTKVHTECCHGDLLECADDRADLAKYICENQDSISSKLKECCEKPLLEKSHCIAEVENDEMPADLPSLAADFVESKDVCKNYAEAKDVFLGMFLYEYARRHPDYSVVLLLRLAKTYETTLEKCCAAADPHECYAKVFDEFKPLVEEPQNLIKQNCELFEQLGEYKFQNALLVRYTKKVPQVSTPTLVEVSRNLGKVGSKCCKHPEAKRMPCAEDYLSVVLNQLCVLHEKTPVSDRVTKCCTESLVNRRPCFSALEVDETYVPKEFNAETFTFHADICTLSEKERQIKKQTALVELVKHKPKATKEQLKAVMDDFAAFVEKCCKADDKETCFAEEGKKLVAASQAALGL
PROCEDURE_DETAILS: Albumin binding: affinity chromatography on columns with immobilized human serum albumin (net retention time)
SETTINGS: isolated binders; HSA column 25° C., PBS pH 7.4/isopropanol gradient
What NRT [min] (net retention time on columns with immobilized human serum albumin) was measured for each of the following?
Report the value in min with no unit label.

Looking for the measured NRT [min] (net retention time on columns with immobilized human serum albumin) of O=C(O)CCCCCCCCCCCCCc1cc(Oc2ccc(S(=O)(=O)Nc3ncc(C(=O)NCCOCCOCC(=O)NCCOCCOCC(=O)O)cn3)cc2)ccc1F , can you help? 15.29

Looking for the measured NRT [min] (net retention time on columns with immobilized human serum albumin) of O=C(O)CCCCCCCCCCCOc1ccc(CCc2ccc(S(=O)(=O)Nc3ccc(C(=O)NCCOCCOCC(=O)NCCOCCOCC(=O)O)cn3)cc2)cc1 , can you help? 17.48

Looking for the measured NRT [min] (net retention time on columns with immobilized human serum albumin) of O=C(O)CCCCCCCCCCCCCCCOc1ccc(S(=O)(=O)Nc2ncc(C(=O)NCCOCCOCC(=O)NCCOCCOCC(=O)O)cn2)cc1Cl , can you help? 13.74

Looking for the measured NRT [min] (net retention time on columns with immobilized human serum albumin) of O=C(O)CCCCCCCCCCCCCCCc1ccc(S(=O)(=O)Nc2ncc(C(=O)NCCOCCOCC(=O)NCCOCCOCC(=O)O)cn2)cc1 , can you help? 15.19

Looking for the measured NRT [min] (net retention time on columns with immobilized human serum albumin) of O=C(O)CCCCCCCCCCCOc1ccc(S(=O)(=O)Nc2ncc(C(=O)NCCOCCOCC(=O)NCCOCCOCC(=O)O)cn2)cc1 , can you help? 11.88

Looking for the measured NRT [min] (net retention time on columns with immobilized human serum albumin) of O=C(O)CCCCCCCCCCCCCc1ccc(CCOc2ccc(S(=O)(=O)Nc3ncc(C(=O)NCCOCCOCC(=O)NCCOCCOCC(=O)O)cn3)cc2)cc1 , can you help? 14.95

Looking for the measured NRT [min] (net retention time on columns with immobilized human serum albumin) of O=C(O)CCCCCCCCCCCCCCOc1ccc(S(=O)(=O)Nc2ncc(C(=O)CCCCCCC(=O)NCCOCCOCC(=O)NCCOCCOCC(=O)O)cn2)cc1 , can you help? 14.31

Looking for the measured NRT [min] (net retention time on columns with immobilized human serum albumin) of O=C(O)CCCCCCCCCc1ccc(S(=O)(=O)Nc2ncc(C(=O)NCCOCCOCC(=O)NCCOCCOCC(=O)O)cn2)cc1 , can you help? 9.87

Looking for the measured NRT [min] (net retention time on columns with immobilized human serum albumin) of O=C(O)CCCCCCCCCc1ccc(OCc2ccc(S(=O)(=O)Nc3ncc(C(=O)NCCOCCOCC(=O)NCCOCCOCC(=O)O)cn3)cc2)cc1 , can you help? 16.76

Looking for the measured NRT [min] (net retention time on columns with immobilized human serum albumin) of O=C(O)CCCCCCCCCCCCCCCOc1cc(Cl)c(S(=O)(=O)Nc2ncc(C(=O)NCCOCCOCC(=O)NCCOCCOCC(=O)O)cn2)cc1Cl , can you help? 13.96

Looking for the measured NRT [min] (net retention time on columns with immobilized human serum albumin) of O=C(O)CCCCCCCCCCCc1cccc(S(=O)(=O)Nc2ccc(C(=O)NCCOCCOCC(=O)NCCOCCOCC(=O)O)cn2)c1 [Binder 65] , can you help? 12.21

Looking for the measured NRT [min] (net retention time on columns with immobilized human serum albumin) of O=C(O)CCCCCCCCCCCCCCCCCc1ccc(S(=O)(=O)Nc2ccc(C(=O)NCCOCCOCC(=O)NCCOCCOCC(=O)O)cn2)cc1 , can you help? 15.77

Looking for the measured NRT [min] (net retention time on columns with immobilized human serum albumin) of O=C(O)CCCCCCCCCCCCCCCOc1ccc(S(=O)(=O)Nc2ccc(C(=O)NCCOCCOCC(=O)NCCOCCOCC(=O)O)cn2)c(Cl)c1Cl , can you help? 13.89

---

What NRT [min] (net retention time on columns with immobilized human serum albumin) was measured for each of the following?
EXPERIMENTAL_TARGET: immobilized human serum albumin (Homo sapiens, UniProt P02768)
Construct: purchased Chiralpak (Chiraltech) 34712
PROCEDURE_DETAILS: Albumin binding: affinity chromatography on columns with immobilized human serum albumin (net retention time)
SETTINGS: isolated binders; HSA column 25° C., PBS pH 7.4/isopropanol gradient
Report the value in min with no unit label.

Looking for the measured NRT [min] (net retention time on columns with immobilized human serum albumin) of O=C(O)CCCCCCCCCCCCCc1ccc(OCc2ccc(S(=O)(=O)Nc3ncc(C(=O)NCCOCCOCC(=O)NCCOCCOCC(=O)O)cn3)cc2)cc1 , can you help? 14.78

Looking for the measured NRT [min] (net retention time on columns with immobilized human serum albumin) of O=C(O)CCCCCCCCCCCCCCOc1ccc(S(=O)(=O)Nc2ncc(C(=O)NCCOCCOCC(=O)NCCOCCOCC(=O)O)cn2)cc1 , can you help? 14.32

Looking for the measured NRT [min] (net retention time on columns with immobilized human serum albumin) of O=C(O)CCCCCCCCCCCCCOc1ccc(S(=O)(=O)Nc2ncc(C(=O)NCCOCCOCC(=O)NCCOCCOCC(=O)O)cn2)cc1 , can you help? 13.57

---

What Insulin-receptor binding affinity was measured for each of the following?
EXPERIMENTAL_TARGET: insulin receptor isoform B (IR-B) (Homo sapiens)
PROCEDURE_DETAILS: Insulin receptor binding affinity assay of insulin analogs (Example 8A, SPA competition binding)
Design: expressed in transfected cells; host or cells: CHO cells overexpressing the IR; isolated plasma membranes
SETTINGS: relative to human insulin; a value of 0 means below the detection limit
Output: the number by itself.

Kindly state the measured Insulin-receptor binding affinity obtained for O=C(O)CCCCCCCCCCCCCCCOc1ccc(S(=O)(=O)Nc2ccc(C(=O)NCCOCCOCC(=O)NCCOCCOCC(=O)O)cn2)c(Cl)c1Cl [Binder 36] with insulin receptor isoform B (IR-B) (Homo sapiens). 0.17

Kindly state the measured Insulin-receptor binding affinity obtained for O=C(O)CCCCCCCCCc1ccc(CCOc2ccc(S(=O)(=O)Nc3ccc(C(=O)NCCOCCOCC(=O)NCCOCCOCC(=O)O)cn3)cc2)cc1 [Binder 26] with insulin receptor isoform B (IR-B) (Homo sapiens). 0.01

Kindly state the measured Insulin-receptor binding affinity obtained for O=C(O)CCCCCCCCCCCCCc1ccc(S(=O)(=O)Nc2ccc(C(=O)NCCOCCOCC(=O)NCCOCCOCC(=O)O)cn2)cc1 [Binder 20] with insulin receptor isoform B (IR-B) (Homo sapiens). 0.4

---

What NRT [min] (net retention time on columns with immobilized human serum albumin) was measured for each of the following?
EXPERIMENTAL_TARGET: immobilized human serum albumin (Homo sapiens, UniProt P02768)
Construct: purchased Chiralpak (Chiraltech) 34712
PROCEDURE_DETAILS: Albumin binding: affinity chromatography on columns with immobilized human serum albumin (net retention time)
SETTINGS: isolated binders; HSA column 25° C., PBS pH 7.4/isopropanol gradient
Report the value in min with no unit label.

Looking for the measured NRT [min] (net retention time on columns with immobilized human serum albumin) of O=C(O)CCCCCCCCCCCCCCCc1cc(Oc2ccc(S(=O)(=O)Nc3ccc(C(=O)NCCOCCOCC(=O)NCCOCCOCC(=O)O)cn3)cc2)ccc1F , can you help? 15.61

Looking for the measured NRT [min] (net retention time on columns with immobilized human serum albumin) of O=C(O)CCCCCCCCCCCc1ccc(Oc2ccc(S(=O)(=O)Nc3ccc(C(=O)NCCOCCOCC(=O)NCCOCCOCC(=O)O)cn3)cc2)cc1 , can you help? 15.01

Looking for the measured NRT [min] (net retention time on columns with immobilized human serum albumin) of O=C(O)CCCCCCCCCCCCCc1ccc(Oc2ccc(S(=O)(=O)Nc3ccc(C(=O)NCCOCCOCC(=O)NCCOCCOCC(=O)O)cn3)cc2)cc1 , can you help? 14.35

Looking for the measured NRT [min] (net retention time on columns with immobilized human serum albumin) of O=C(O)CCCCCCCCCCCCCCCOc1cccc(S(=O)(=O)Nc2ncc(C(=O)NCCOCCOCC(=O)NCCOCCOCC(=O)O)cn2)c1 , can you help? 14.74

Looking for the measured NRT [min] (net retention time on columns with immobilized human serum albumin) of O=C(O)CCCCCCCCCc1ccc(CCOc2ccc(S(=O)(=O)Nc3ncc(C(=O)NCCOCCOCC(=O)NCCOCCOCC(=O)O)cn3)cc2)cc1 , can you help? 15.65

Looking for the measured NRT [min] (net retention time on columns with immobilized human serum albumin) of O=C(O)CCCCCCCCCCCCCCCCCOc1ccc(S(=O)(=O)Nc2ccc(C(=O)NCCOCCOCC(=O)NCCOCCOCC(=O)O)cn2)cc1 , can you help? 14.26

Looking for the measured NRT [min] (net retention time on columns with immobilized human serum albumin) of O=C(O)CCCCCCCCCCCCCc1ccc(OCc2ccc(S(=O)(=O)Nc3ccc(C(=O)NCCOCCOCC(=O)NCCOCCOCC(=O)O)cn3)cc2)cc1 , can you help? 15.04

Looking for the measured NRT [min] (net retention time on columns with immobilized human serum albumin) of O=C(O)CCCCCCCCCCCCCCCOc1ccc(S(=O)(=O)Nc2ccc(C(=O)NCCOCCOCC(=O)NCCOCCOCC(=O)O)cn2)cc1F , can you help? 13.68

Where do these numbers come from? They come from patent US11098102B2.
